Origin of measurements: patent US7183267B2

Study System: TEM-1 β-lactamase (Escherichia coli)
Sequence (P62593 24-286 limits assumed): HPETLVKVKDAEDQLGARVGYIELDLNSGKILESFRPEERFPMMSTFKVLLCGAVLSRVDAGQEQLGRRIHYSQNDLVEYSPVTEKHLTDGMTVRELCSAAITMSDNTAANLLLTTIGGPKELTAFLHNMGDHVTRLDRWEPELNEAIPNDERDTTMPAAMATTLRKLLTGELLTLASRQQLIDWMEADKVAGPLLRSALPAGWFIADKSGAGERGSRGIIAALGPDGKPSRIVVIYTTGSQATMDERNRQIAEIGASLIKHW
Method Summary: TEM-1 β-lactamase inhibition assay (nitrocefin hydrolysis, 486 nm)
Assay type: biochemical
Run Conditions: Ki, TEM-1 β-lactamase
Value Type: Ki (µM)
Enter your answer as a number in µM; do not include the unit.

INSERT INTO results (compound, value_type, uom, value) VALUES
  ('O=C(OCc1ccccc1COC(=O)c1cc(B(O)O)cc([N+](=O)[O-])c1)c1cc(B(O)O)cc([N+](=O)[O-])c1 [Compound (10a)]', 'Ki', 'µM', 9.7),
  ('O=C(Oc1ccccc1[N+](=O)[O-])c1cc(B(O)O)cc([N+](=O)[O-])c1', 'Ki', 'µM', 12);

Then there is this compound:
State its Ki on TEM-1 β-lactamase (Escherichia coli): O=C(Oc1c(Cl)cccc1Cl)c1cc(B(O)O)cc([N+](=O)[O-])c1 8.8
